Value source: paper PMC8954816

Experiment: Intravenous pharmacokinetic study of Daporinad in mice (plasma, LC-qTOF-MS, NCA)
Type: in vivo, mouse
Settings: male, ICR, mouse plasma, 10 mg/kg, n = 3
reported-property: half-life (min)
Number in min, nothing else.

QUERY: # input molecule: O=C(/C=C/c1cccnc1)NCCCCC1CCN(C(=O)c2ccccc2)CC1 [Daporinad] ; wanted: its half-life
RESULT: 50.5

----------
Assay: Intravenous pharmacokinetic study of Daporinad in mice (plasma, LC-qTOF-MS, NCA)
Format: in vivo, mouse
Conditions: male, ICR, mouse plasma, 10 mg/kg, n = 3
reported-property: AUC(0-t) (ng·h/mL)
Number in ng·h/mL, nothing else.

QUERY: # input compound: O=C(/C=C/c1cccnc1)NCCCCC1CCN(C(=O)c2ccccc2)CC1 ; wanted: its AUC(0-t)
RESULT: 5950

----------
Assay: Intravenous pharmacokinetic study of Daporinad in mice (plasma, LC-qTOF-MS, NCA)
Type: in vivo, mouse
Conditions: male, ICR, mouse plasma, 5 mg/kg, n = 3
reported-property: half-life (min)
Number in min, nothing else.

QUERY: # input compound: O=C(/C=C/c1cccnc1)NCCCCC1CCN(C(=O)c2ccccc2)CC1 ; wanted: its half-life
RESULT: 52.9

----------
Experiment: Intravenous pharmacokinetic study of Daporinad in mice (plasma, LC-qTOF-MS, NCA)
Format: in vivo, mouse
Conditions: male, ICR, mouse plasma, 5 mg/kg, n = 3
reported-property: clearance

QUERY: # input compound: O=C(/C=C/c1cccnc1)NCCCCC1CCN(C(=O)c2ccccc2)CC1 [Daporinad] ; wanted: its clearance
RESULT: 29.3 mL/min/kg

----------
Test: Intravenous pharmacokinetic study of Daporinad in mice (plasma, LC-qTOF-MS, NCA)
Format: in vivo, mouse
Conditions: male, ICR, mouse plasma, 10 mg/kg, n = 3, read-out: Vss
reported-property: Vd (L/kg)
Number in L/kg, nothing else.

QUERY: # input compound: O=C(/C=C/c1cccnc1)NCCCCC1CCN(C(=O)c2ccccc2)CC1 ; wanted: its Vd
RESULT: 0.647

----------
Assay: Intravenous pharmacokinetic study of Daporinad in mice (plasma, LC-qTOF-MS, NCA)
Type: in vivo, mouse
Details: male, ICR, mouse plasma, 5 mg/kg, n = 3, read-out: Vss
reported-property: Vd (L/kg)
Number in L/kg, nothing else.

QUERY: # input compound: O=C(/C=C/c1cccnc1)NCCCCC1CCN(C(=O)c2ccccc2)CC1 ; wanted: its Vd
RESULT: 0.897

----------
Assay: Intravenous pharmacokinetic study of Daporinad in mice (plasma, LC-qTOF-MS, NCA)
Type: in vivo, mouse
Details: male, ICR, mouse plasma, 30 mg/kg, n = 3
reported-property: half-life (min)
Number in min, nothing else.

QUERY: # input molecule: O=C(/C=C/c1cccnc1)NCCCCC1CCN(C(=O)c2ccccc2)CC1 ; wanted: its half-life
RESULT: 40.8
